This collection of values is drawn from the RNAGym collection of RNA variant scans (doi:10.1126/science.aae0568).

B1: tRNA (parent)
chain: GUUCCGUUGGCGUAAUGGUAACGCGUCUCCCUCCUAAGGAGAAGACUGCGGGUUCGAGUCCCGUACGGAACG

- Variants of: B1
- Method Notes: yeast fitness relative to wild type (ratio to wild type); higher = fitter; tRNA-Arg(CCU), competitive growth, 37 C, YPD
Variants at the floor of the assay were thinned out.
Endpoint Label: yeast fitness

Request: // yeast fitness lookup, key: C11U A20G C29G C34G U54C
Response: ≤ 0.5

Request: Reported yeast fitness, variant U2G C31A G56U G67A : ____
Response: ≤ 0.5

Request: I have this variant here, G25C C27G U35C , and I need its recorded yeast fitness.
Response: ≤ 0.5

Request: # input variant: C11U C31G C46G G52A C66U ; wanted: its yeast fitness
Response: ≤ 0.5

Request: Which yeast fitness value is on record for U26C C33G A36U A57U ?
Response: ≤ 0.5

Request: Suppose we examine the variant C5U U19C C24A U28A C46G C62U A70U ; what yeast fitness value has been reported?
Response: ≤ 0.5

Request: yeast fitness lookup needed for C24A U26G A43C G68C , thanks.
Response: ≤ 0.5

Request: Any idea what its yeast fitness is? The variant is G10A G12A G68C
Response: ≤ 0.5

Request: Can you look up the measured yeast fitness of G12A A14U C30U for me?
Response: ≤ 0.5

Request: Recorded yeast fitness for U3A C4G A43G , please?
Response: ≤ 0.5

Request: Please give the measured yeast fitness for this variant: G17A C22U C46U C66U A70C
Response: ≤ 0.5

Request: Quick check: yeast fitness of G12A A21C U59A G67A ?
Response: ≤ 0.5

Request: Reported yeast fitness for C31G A36C U47C : what is it?
Response: ≤ 0.5

Request: Endpoint output: yeast fitness of C4A C31U C34A A40G . Value?
Response: ≤ 0.5

Request: Entry C11G U26A U35A G67C : reported yeast fitness = ?
Response: ≤ 0.5

Request: Which value of yeast fitness has been reported for C30A C33G A40G in the records?
Response: ≤ 0.5

Request: Requested read-out: yeast fitness. Entry: A20U C34U A42U
Response: ≤ 0.5

Request: Reported yeast fitness, variant A36G A37U : ____
Response: 0.718

Request: Look up yeast fitness: U2C C31A G50C A70G
Response: ≤ 0.5

Request: Recorded yeast fitness of A21G U28A C29U G58A , please.
Response: 0.528

Request: Requested read-out: yeast fitness. Entry: A36C C55U C60G
Response: 0.781

Request: Field request: yeast fitness | item: C33U U54C C61G
Response: ≤ 0.5

Request: Which value of yeast fitness has been reported for C24G G50C A70G in the records?
Response: ≤ 0.5

Request: Quick one: yeast fitness for C11G U32A A37C G39A A43G G58C C60A C62U ?
Response: ≤ 0.5

Request: So what's the measured yeast fitness for this one? A21C U64A
Response: 0.799

Request: Which yeast fitness is listed for U7G U26C C49G ?
Response: ≤ 0.5

Request: What measured yeast fitness goes with U28C C29A A69U ?
Response: 0.559

Request: I am curious: what yeast fitness value has been reported for A14C G17A ?
Response: 0.679

Request: Given the entry C4U G23C A36C C66U , report its measured yeast fitness.
Response: ≤ 0.5

Request: // query yeast fitness value for entry U19C G50A C55A C66A
Response: 0.516

Request: Which value of yeast fitness has been reported for U19C U28C C49A in the records?
Response: 0.584

Request: Looking for the measured yeast fitness of C5A G6A U7A A43U G44A C46A , can you help?
Response: 0.691

Request: Query: yeast fitness; subject: C31G A36C C61U
Response: ≤ 0.5

Request: Find the recorded yeast fitness belonging to G10C G39A and report it.
Response: 0.563

Request: Give its yeast fitness value. Item: C22G C27U C62A A65G
Response: ≤ 0.5
